Origin of values: ChEMBL document CHEMBL1201862

System: RXF 393
Assay: NCI tumour cell line growth inhibition, 48 h
Active and inactive are the calls of the source. No stated cut-off is given here; in the data, active = GI50 up to about 1.1 µM and inactive = higher.

compound: CC(C)=CCCC(C)[C@H]1CC(O)C2(C)C3=CCC4C(C)(C)[C@@H](O)CC[C@]4(C)C3=CC[C@]12C (stereo partly specified)
GI50: 2.92 µM (inactive)
//
compound: Cc1ccccc1C1OC(=O)c2ccc3ccccc3c21 (stereo unspecified)
GI50: 2.59 µM (inactive)
//
compound: COc1cc2c3c(c4cc(OC)c(OC)cc4c2cc1OC)C(=O)C1CCC(=O)N1C3 (stereo unspecified)
GI50: 14.8 µM (inactive)
//
compound: Clc1ccccc1/C=C/c1ccnc2ccccc12
GI50: 16.5 µM (inactive)
//
compound: O=S1OC(c2ccccc2)(c2ccccc2)C(c2ccccc2)(c2ccccc2)O1
GI50: > 72.1 µM (inactive)
//
compound: O=c1[nH]c2ccsc2c(=O)n1COCc1ccccc1
GI50: > 100 µM (inactive)
